SYSTEM_NAME: Macaca fascicularis CD3ε/δ-Fc fusion heterodimer (Macaca fascicularis) (UniProt Q95LI8)
Sequence (chain, as listed by the source mutant, chain 1 of 2): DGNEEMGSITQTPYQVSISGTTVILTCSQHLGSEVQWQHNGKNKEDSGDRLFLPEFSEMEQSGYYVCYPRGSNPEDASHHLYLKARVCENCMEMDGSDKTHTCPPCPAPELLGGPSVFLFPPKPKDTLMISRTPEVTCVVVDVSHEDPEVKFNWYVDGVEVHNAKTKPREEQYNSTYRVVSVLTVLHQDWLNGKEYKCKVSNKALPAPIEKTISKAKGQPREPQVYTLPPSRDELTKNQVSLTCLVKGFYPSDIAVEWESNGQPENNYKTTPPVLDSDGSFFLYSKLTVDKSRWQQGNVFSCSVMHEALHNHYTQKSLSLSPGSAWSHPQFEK
Sequence (Q95LI8 22-105, stated change not applied, chain 2 of 2): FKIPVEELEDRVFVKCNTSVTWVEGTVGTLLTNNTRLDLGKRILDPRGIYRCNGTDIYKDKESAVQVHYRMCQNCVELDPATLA
ASSAY_REMARKS: SPR single point, hybridoma supernatant
ENDPOINT: RU at 25 nM (RU)
// note: answer is a bare numeric in RU

// solved cases for RU at 25 nM follow
{"BINDER": "5B1-G2 anti-CD3 antibody (antibody, V domains shown) VH: EVQVVETGGSLVQPGKSLKLTCATSGFSFSNAWMHWVRQSPEKQLEWVAQIKDKANNYATYYAESVKGRFTISRDDSKGSIYLQMNSLKEEDTAVYYCRGLYYGLFPSDYWGQGVMVTVSS VL: DVVMTQTPVSLSVSLGGQVSISCRSSQSLVHNNGNTYLSWYLLKPGQSPQLLIYKVSNRFSGISDRFSGGGSGTDFTLKISRLEPDDLGIYYCGQGTQYPFTFGSGTKLEIK", "OBSERVED_VALUE": 0.5}
{"BINDER": "20E5-F10 anti-CD3 antibody (antibody, V domains shown) VH: EVQLVETGENLVQPGKSLRLTCATSGFSFSNAWMHWIRQSPEKQLEWVAQIKDKSNNYATYYAESVNGRFTISRDDSKSSIYLHMDNLKEEDSAIYYCRYVHYGVRFFYTMDVWGQGTSVTVSS VL: DVVMTQTPVSLSVSLGDQVSISCRPSQSLVHNNGNTYLSWYLQKPGQSPHPLIYKVSNRFSGISDRFSGSGSGTDFTLKISRVEPDDLGVYYCGQGTQYPFTFGSGTKLEIK", "OBSERVED_VALUE": 8}
{"BINDER": "11D7-C3 anti-CD3 antibody (antibody, V domains shown) VH: EVQFVETGGSLVQPGKSLKLTCATSGFTFSNAWMHWVRQSPEKQLEWVAQIKAKSNNYATYYAESVKGRFTISRDDSKSSVYLQMNSLKEEDTATYYCRGLYYGLSPSDYWGQGVMVTVSS VL: DVVMTQTPVSLSVSLGGQVSISCRSSQSLVHNNGNTYLSWYLQKPGQSPQLLIYKVSNRFSGISDRFSGSGSGTDFTLKISRVEPDDLGVYYCGQGTHYPFTFGSGTKLEIK", "OBSERVED_VALUE": 10}
{"BINDER": "13H2-C3 anti-CD3 antibody (antibody, V domains shown) VH: EEELVETGGSLVQPGKSLKLTCATSGFTFSNAWMHWVRQSPDKQLEWVAQIKAKSNNYATYYAESVKGRFTISRDDSKSSVYLQMNNLKEEDTAIYYCRYVHYGLAPMDAWGQGTSVTVSS VL: DVVMTQTPVSLSVSLGGQVSISCRSSQSLVHNNGNTYLSWYLQKAGQSPQLLIYKVSNRFSGISDRFSGSGSGTDFILKISRVEPDDLGVFYCGQGTQYPFTFGAGTKLELK", "OBSERVED_VALUE": 7}
{"BINDER": "4B4-D7 anti-CD3 antibody (antibody, V domains shown) VH: EVQLVETGGRLVQPGRSLKLTCATSGFTFSNAWMHWVRQSPEKQLEWVAQIKARSNNYATYYAESVKGRFTISRDDSKSTIYLQMNSLKEEDTAIYYCRGTYYASKPFDYWGQGVMVTVSS VL: DVVMTQTPVSLSVSLGGQVSISCRSSQSLVHDNGNTYLSWSLQRPGQSPQVLIYKVSNRFSGTSDRFTGSGSGTDFTLKISRVEPDDLGVYYCGQGTQYPFTFGSGTKLEIK", "OBSERVED_VALUE": 14}
{"BINDER": "6C9-C9 anti-CD3 antibody (antibody, V domains shown) VH: AVQLVESGGGLVRPKESLKISCAASGFTFRNAAMYWVRQAPGKGLEWVARIRTQPNNYAKYYADSVKDRFTISRDDSKSMVYLQMDNLKTEDTAMYYCTGLVVTAMDAWGQGTSVTVSS VL: DIQMTQSPSFLSASVGDRVTINCKASQNINKYLNWYQQKLGEAPKLLIYVTNNLQTGIPSRFSGSGSGTDYTLTISSLQPEDVATYFCLQHRSMYTFGTGTKLELK", "OBSERVED_VALUE": 32}

Notebook: 3H6-D2 anti-CD3 antibody (antibody, V domains shown) VH: EVQLVETGGRLVQPGKSLKLTCATSGFTFSNAWMHWVRQSPEKQLEWVAQIKDKSNNYATYYAESVKGRFTISRDDSKSIIYLQMNSLKEEDTAIYYCRALTYYGYKRDAMDGWGHGTSVTVSS VL: DVVMTQTPVSLSVSLGGQVSISCRSSQSLVHNNGNTYLSWYLQKPGQSPQLLIYKVSNRFSGISDRFSGSGSGTDFTLKISRVEPDDLGVYYCGQGTQYPFTFGAGTKLELK , RU at 25 nM read as 7

Entry under test: 18G9-H11 anti-CD3 antibody (antibody, V domains shown) VH: EVQLVETGGSLVQPGKSLKLTCATSGFTFSNAWIQWVRQSPEKQLEWVAQIKAKSNNYATYYAESVKGRFTISRDDSKSSVYLQMNSLKEEDTALYYCTWRHYYSSHTMDAWGQGTLVTVSS VL: DVVMTQTPVSLSVSLGGQVSISCRSSQSLVHNNGNTYLSWYLQKPGQSPQLLIYKVSNRFSGISDRFSGSGSGTDFTLKISRVAPTDLGVYYCGQGSQYPFTFGAGTKLELK . Its RU at 25 nM was -7

Entry 16F8-A7 anti-CD3 antibody (antibody, V domains shown) VH: VETGGNLVQPGKSLKLTCATSGFTFSNAWMHWVRQSPEKQLEWVAQIKAKSNNYATYYAESVKGRFTISRDDSKSSVYLQMNSLKEEDTAIYYCRYVNYGLAPMDVWGQGTSVTVSS VL: DVVMTQTPVSLSVSLGGQVSISCRSSQSLVHNNGNTYLSWYLQKPGQSPQLLIYKVSNRFSGFSDRFSGSGSGTDFTLKISRVEPDDLGVYYCGQGTQYPFTFGAGTKLELK ; RU at 25 nM = 22.5

Documented RU at 25 nM of 12G3-E8 anti-CD3 antibody (antibody, V domains shown) VH: EVRVVETGGSLVQPGKSLKLTCATSGFTFSLAWMHWVRQSPEKKLEWVAQIKDKANNYATYYAESVKGRFTISRDDSKRSVYLQMNRLKEEDTAIYYCRGVYYGFSMTPFDYWGQGVMVTVSS VL: DVAMTQTPVSLSVSLGGQVSISCRSSQSLVHNNGNTYLSWYLQKPGQSPQVLIYKVSNRFSGISDRFSGSGSGADFTLKISRVEPDDLGVYYCGQGTQYPFTFGAGTKLELK : 17
